- System: RIPK2;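 also: KINOMEscan kinase panel screen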
- CONDITION SET: concentration: 1 μM, replicates: in singlicate; n = 1
Group membership follows %Inh per the scheme bin A (below 20%), bin B (20% to below 70%), bin C (70% or more)

MOLECULE	LABEL CLASS
CCn1c(-c2nonc2N)nc2c(C#CC(C)(C)O)nc(OC[C@H](N)c3ccccc3)cc21 [GSK943949]	bin A
O=C(Nc1cccc(-c2nn3ncccc3c2-c2ccnc(Nc3ccccc3)n2)c1)c1c(F)cccc1F [GSK198271]	bin C
COc1cc(Nc2ncc3c(C)nc(-c4cc5ccccc5[nH]4)n3n2)cc(OC)c1OC [GW869516]	bin A

// return the class label for Cc1ccc(F)c(C(=O)Nc2cccc(-c3nn4ccccc4c3-c3ccnc(Nc4cccc(F)c4)n3)c2)c1F [GSK361061] bin B

// return the class label for O=C(Nc1ccccc1F)NC1CCN(c2ccnc(Nc3ccc(F)cc3)n2)CC1 [GSK1379800] bin A

// return the class label for CN1CCN(Cc2cccc(-c3ccc4c(Nc5ccc(Oc6ccccc6)cc5)ccnc4c3)c2)CC1 [GW578342] bin C

// return the class label for Nc1ncc(-c2ccc3nccc(-c4ccncc4)c3c2)cc1S(=O)(=O)N1CCOCC1 [GSK1627798] bin A

// return the class label for COc1cc(Nc2nccc(-c3c(-c4cccc(NC(=O)c5c(F)cccc5F)c4)nn4ccccc34)n2)cc(OC)c1OC [GSK323521] bin C

// return the class label for Nc1ncc(-c2cccnc2)c2scc(-c3ccc4c(c3)CCN4C(=O)Cc3ccccc3)c12 [GSK683281] bin C

// return the class label for CC(=O)N1CCN(c2ccc(Nc3nccc(-c4sc(C(C)C)nc4-c4cccc(NS(=O)(=O)c5cccc(Cl)c5)c4)n3)cn2)CC1 [GSK1660437] bin C

// return the class label for Cc1ccc(C(=O)Nc2ccc(Nc3ccnc4cc(-c5nccs5)ccc34)cc2O)cc1.Cl [GW494702] bin B

// return the class label for COc1ccc(Nc2nccc(N3CCC(NC(=O)Nc4cccc(OC)c4)C3)n2)cc1 (stereo not shown) [GSK1379742] bin A

// return the class label for Cc1ccc(C(=O)N2CC[C@@H](O)C2)cc1-n1c(C)cc(OCc2ccc(F)cc2F)c(Br)c1=O bin B

// return the class label for CCn1c(-c2nonc2N)nc2c(C#CC(C)(C)O)ncc(OCCCCN)c21.O=C(O)C(F)(F)F.O=C(O)C(F)(F)F [GSK507274] bin A

// return the class label for COc1cccc(NC(=O)NC2CCN(c3ccnc(Nc4cc(OC)c(OC)c(OC)c4)n3)C2)c1 (stereo not shown) [GSK1379763] bin B

Data provenance is paper PMC5540273.
